# assay overview: soluble on expression in E. coli; label from the status in PepcDB or PDB records
quantity: soluble on expression in E. coli

INSERT INTO measurements (monomer_sequence, quantity, val) VALUES
  ('MAFPRRLLSLSLRVKDLEAALFFYRDLLGLKVEADPPRYRLFPEGRGFLLELLHDPEAPLRPYPSLGLYHFALLLPHRKALAGVFRRLLEAGAHFEGAADHGVSEALYFRDPEGNGLELYRDRPKEAWPKGPLMFTAPLNLEKLLAENPDPTPLPPETLLGHLHLHVEDLAAAEAFFNGKLGMEVTLRTYPGALFFAWDGYHHHVGANTWAGRRKAPPGATGLLGYTLLAPPGVPPGEHPDPTGALARVLTEPPPSP', 'soluble on expression in E. coli', 'soluble'),
  ('MAHHHHHHMQPVKTAVGIRQGLRRCTQLPNKSFRILHVSPRQLTVSTGGDDILKEQRRLQQHGTCTRNNIFRHGVVCACNLLQGYTISIKTNSLIHHSLNFTGNTKTQASKDTHLSNKLYQTFRIIHLHPPIRINVHQWCIGIQNECMAVILHIHRPMFI', 'soluble on expression in E. coli', 'not soluble'),
  ('MSLGIPPNEAKTLGTYVPGDITLVDSYGNEFQLKNLKGKPIILSPIYTHCRAACPLITKSLLKVIPKLGTPGKDFWVITFTFDPKDTLEDIKRFQKEYGIDGKGWKVVKAKTSEDLFKLLDAIDFRFMTAGNDFIHPNVVVVLSPELQIKDYIYGVNYNYLEFVNALRLARGEGHHHHHH', 'soluble on expression in E. coli', 'soluble'),
  ('MAHHHHHHMTFSVKGGSYSSSHPSPAMHPYVSPSLLPQSHGQQAPPSFSLGDEQYVGVPKRVGVDPTKYKTTICRNWEQTGTCAFRGCTFAHGVEELRAPLRPDGHTPVLRPQHISPGSTPPLRASQPPPPPSSGHYTLEQLLDMLYKEVLHQRELVTVHVEANTTLEGMLRREQAQHDASKKQLEEKTQQCELFARELFARNQQLRKAADSSPEIKELLDQWETQLASFSEADVKKDDVFHTATATSSTDDGGDSGKEYESARIEELLRALQR', 'soluble on expression in E. coli', 'not soluble'),
  ('MPSENPIGKTMKSIDEQSLHNARRLFESGDIDRIEVGTTAGLQQIHRYLFGGLYDFAGQIREDNISKGGFRFANAMYLKEALVKIEQMPERTFEEIIAKYVEMNIAHPFLEGNGRSTRIWLDLVLKKNLKKVVNWQNVSKTLYLQAMERSPVNDLELRFLLKDNLTDDVDNREIIFKGIEQSYYYEGYEKG', 'soluble on expression in E. coli', 'soluble'),
  ('MVYNENTPHFYNKSGKETFMSNILFSVFPNENFIDMSLYQFGWEQCQPSHSYGPAARNHYLFHYVISGTGTLMADDTSGITQTYSVKSGQGFMIFPQQITTYIADQKLPWEYVWIEFDGLRVKEILELAGLTKSAPIYHAHSKEMREVLKEEMLYIARNPEQPPFHLIGHLYLFMDALTRSCTREQTNSAGRLRDFYIHEAIAFIEQNFQNDISVEDIAEVCGLNRSYFGKIFKETLGRSPQEFLMNYRMVKATELLKLTQLSISEISNAVGYANPLHFSRAFKNVYGESPRIWRQNHRT', 'soluble on expression in E. coli', 'not soluble');

###

# assay overview: soluble on expression in E. coli; label from the status in PepcDB or PDB records
quantity: soluble on expression in E. coli

INSERT INTO results (monomer_sequence, val) VALUES
  ('MFCLETTFLIDLLRGRDEALKFYAKIRDSKLYTTSISAWELLRGPKLIGKDKEFEVAVELLESLDVLPFSFNSAKIAVEIEKDLREKGMEVNLIDVLIASVAMEHSLKLVTRDEHFSRIKGLEVERYRPE', 'soluble'),
  ('MGSSHHHHHHSSGLVPRGSHMQIHTLTIRHGRSDPETVRSLLGQDQVLVVDYDAIHHHVINTAEYTYLSHMFDIIVLNLSGKLNDIIDTIMAGAAMVVIDPSVQEKRLREFFDITENIAMPYRGDGHSEAFSQLGGQYFVTDREIGYPFKLAYSTTDISGDRYIRVLDFPQDISDMIFERA', 'soluble'),
  ('MHVLDLFKIEGKTAIVTGGGRGLGEQIAVGLAEAGANVVVCSRKVEACEQVKEKLEQLGVRSLALRCDVTNPEEVKHVVETTVKEFGGIDILVNNSGATWGAPVEEMPLEAWQKVINVNVTGTFLMSQAVGKVMIAKQTGGSIINIASVAGLGGTHPDILNTIGYNTSKGAVITFTRDLAAKWGKHGIRVNAVAPGFFPTKMSKVVLERVGKKVLEHTPLGRFGGEDDLKGAVLFLASPASAFVTGALLVVDGGSHATGI', 'soluble');

###

# assay overview: soluble on expression in E. coli; label from the status in PepcDB or PDB records
quantity: soluble on expression in E. coli

INSERT INTO measurements (monomer_sequence, quantity, val) VALUES
  ('MGSDKIHHHHHHMVRLAVVGLGKMGLSHYAMINAHPDVKVEAVCDSTGYVLDVLNKYTGVRTYTDFDVMLRDIELDAVIIATPSRSHGQMVEVALNENLHVFCEKPFCLDITEGERLARIAAERGLVNQVGYHNRFVGAFQEVKRLLDAGAIGAVTHVLAEAYGPVVLKPKGSTWRTQRTEGGGCLYDYAAHPINLVNWYLGAPQSVGGSVLNKIFSKDTEDEVFSTLYYEEGKSVQISVNWSDESYRKMTTKVTIWGTQGRIYADRQECQVYIRDGVNIPAGYQRGWNVRYTTDLTEAVWFYLRGEEYSAQLDYFVRCIEEKEGGGNINSFEEAVITDRVMSMMVADAEKRPPVTSGIAPRQAPGKKFGLLFGGRKAVS', 'soluble on expression in E. coli', 'not soluble'),
  ('MGSDKIHHHHHHMQPEFNRPEFLEGNSAEEIHERMMNNLPDDIDDMPGGFPYDMTMPAALEKDEIINFHIVRALMIAFPEYAWDEWLDLHGRQVHLTRHEAEPAFGYVKITAAEGTEILSGTVFCTAATETGPSIEYATTEDVVVGGEGSVLIPVSAVEAGTGSNVAANTVVLMMVPDKNVTEINNPEPIRGGTERETDDDFYDRIAAEYDNSMTYLGNDTDYKRWAKQAGAGDAIVISTWNGPGTVKLVLVDGNGKPANAKLVQDVYNYIVSPNDRSARLLPTGTAELTCAAATTVAVNYVIAGLSYDETTGIEQIKADFTEAVRAVYAQAKTEGVLRYNDVRPLISAIAGVEDFETFTMNGKMQNITLKSEEYPDTGTLNFS', 'soluble on expression in E. coli', 'not soluble');

###

# assay overview: soluble on expression in E. coli; label from the status in PepcDB or PDB records
quantity: soluble on expression in E. coli

INSERT INTO assay_data (monomer_sequence, val) VALUES
  ('MGSDKIHHHHHHMNFKQLNYFLVVAEEGQITSAAKRLFVGQPALSYQLKQLEEELGAKLFIRQPYGIELTEAGKKLRDYAGQILTLAQNVQTEITELDRGGWGRVKLGSVSSSIGELPSAKLTAFARQHPGVSFDIYEDNTFGILDKLQGNLLDLAIVRTPYNRVNLNFVDISDEPMTAVTCQDFFPGKGKVGLQDLAGQPLVIYRRFEDMFKEAFAEKGLTPNFVVKCDDSRTAIRWSDSGLGIALVPESIAKTYARGHIYPIDLAKWRTRLQLVWRKDRVVTPLMRQIIALYAK', 'not soluble'),
  ('MIKFYQYKNCTTCKKAAKFLDEYGVSYEPIDIVQHTPTINEFKTIIANTGVEINKLFNTHGAKYRELDLKNKLQTLSDDEKLELLSSDGMLVKRPLAVMGDKITLGFKEDQYKETWLA', 'not soluble'),
  ('MGSDKIHHHHHHMKKVAIVQSNYIPWKGYFDMIAAVDEFILYDDMQYTRRDWRNRNQIKTPQGVQWLTVPVLVKGKYHQKIRETEIDGTDWAAAHWKALVQNYRRSPHFTEIAAWLEPLYLAETFTHISQLNRRFIEAICNYLGIKTVIKNSWDYTLLDGKTERLADLCVQAGGTEYISGPAAKDYVDEQVFKENGIKLTWFDYIGYPEYQQLWGEFTHGVTILDLLLNCGKNAKRYMKYVE', 'not soluble');

###

# assay overview: soluble on expression in E. coli; label from the status in PepcDB or PDB records
quantity: soluble on expression in E. coli

INSERT INTO assay_data (monomer_sequence, quantity, val) VALUES
  ('MTIFNKIDYNYYKLINYPIMMVHDEWLGDLTGVNQVSFRRLRETSSTRNQLNKILRQEIHDKISGVELSDINKEGFLYQSIGKIRLLALSSALFDIQCPDYIFSRLYRETLIREIGYQNVKQLSFYWQGGQCKPEYGEERFCAELIKYGAGNLEWLFADNPLWTIVKYLLPKSGEIKPTHINDLFLNRLNKILLPYETL', 'soluble on expression in E. coli', 'not soluble'),
  ('MPVLHNRISNDALKAKMLAESEPRTTISFYKYFHIADPKATRDALYQLFTALNVFGRVYLAHEGINAQISVPASNVETFRAQLYAFDPALEGLRLNIALDDDGKSFWVLRMKVRDRIVADGIDDPHFDASNVGEYLQAAEVNAMLDDPDALFIDMRNHYEYEVGHFENALEIPADTFREQLPKAVEMMQAHKDKKIVMYCTGGIRCEKASAWMKHNGFNKVWHIEGGIIEYARKAREQGLPVRFIGKNFVFDERMGERISDEIIAHCHQCGAPCDSHTNCKNDGCHLLFIQCPVCAEKYKGCCSEICCEESALPPEEQRRRRAGRENGNKIFNKSRGRLNTTLGIPDPTE', 'soluble on expression in E. coli', 'not soluble');
